All values here come from ChEMBL document CHEMBL5352412.

Biological target: UniProtKB P11388
Sequence (P11388 whole entry): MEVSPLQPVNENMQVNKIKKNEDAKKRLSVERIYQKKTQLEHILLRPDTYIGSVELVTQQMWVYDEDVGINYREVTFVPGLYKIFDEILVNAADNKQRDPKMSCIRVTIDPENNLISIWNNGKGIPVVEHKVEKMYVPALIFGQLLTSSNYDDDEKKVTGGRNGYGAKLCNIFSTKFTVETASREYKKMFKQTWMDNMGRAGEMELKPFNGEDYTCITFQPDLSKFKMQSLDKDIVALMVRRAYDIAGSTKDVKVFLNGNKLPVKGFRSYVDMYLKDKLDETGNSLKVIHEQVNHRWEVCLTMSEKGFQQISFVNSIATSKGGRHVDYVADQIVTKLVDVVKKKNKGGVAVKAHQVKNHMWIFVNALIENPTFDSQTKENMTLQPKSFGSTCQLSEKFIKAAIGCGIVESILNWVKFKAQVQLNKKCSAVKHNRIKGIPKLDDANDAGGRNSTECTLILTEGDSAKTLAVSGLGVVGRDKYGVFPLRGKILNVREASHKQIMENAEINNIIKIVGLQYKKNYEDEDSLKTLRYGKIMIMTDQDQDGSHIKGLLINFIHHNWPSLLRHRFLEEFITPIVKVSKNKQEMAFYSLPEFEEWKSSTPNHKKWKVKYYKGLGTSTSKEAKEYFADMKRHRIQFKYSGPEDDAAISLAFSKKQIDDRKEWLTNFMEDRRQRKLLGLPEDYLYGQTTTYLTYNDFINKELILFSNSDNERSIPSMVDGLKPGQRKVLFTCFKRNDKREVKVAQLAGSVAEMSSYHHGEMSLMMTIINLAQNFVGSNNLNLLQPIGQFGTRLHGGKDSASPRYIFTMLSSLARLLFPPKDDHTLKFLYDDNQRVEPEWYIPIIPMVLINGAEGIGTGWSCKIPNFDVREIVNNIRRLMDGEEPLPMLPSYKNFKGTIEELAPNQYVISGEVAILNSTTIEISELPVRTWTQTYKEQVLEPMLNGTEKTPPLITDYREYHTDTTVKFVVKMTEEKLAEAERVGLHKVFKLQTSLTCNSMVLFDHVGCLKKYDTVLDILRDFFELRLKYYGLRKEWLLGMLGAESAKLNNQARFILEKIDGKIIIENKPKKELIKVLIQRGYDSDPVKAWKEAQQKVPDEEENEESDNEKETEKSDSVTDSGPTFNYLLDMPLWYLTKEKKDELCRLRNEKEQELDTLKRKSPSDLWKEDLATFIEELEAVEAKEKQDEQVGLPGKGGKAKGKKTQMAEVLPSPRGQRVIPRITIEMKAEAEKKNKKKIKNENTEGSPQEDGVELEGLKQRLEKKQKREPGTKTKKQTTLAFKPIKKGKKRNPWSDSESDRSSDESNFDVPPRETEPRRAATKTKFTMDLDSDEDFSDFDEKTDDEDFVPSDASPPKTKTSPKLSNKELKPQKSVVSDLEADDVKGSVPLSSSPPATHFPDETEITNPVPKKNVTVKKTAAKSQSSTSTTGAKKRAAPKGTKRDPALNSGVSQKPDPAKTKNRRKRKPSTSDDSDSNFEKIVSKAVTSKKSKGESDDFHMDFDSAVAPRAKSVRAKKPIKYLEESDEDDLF
Assay: Inhibition of human topoisomerase 2-alpha assessed as reduction in relaxation of pBR322 DNA at 25 uM measured after 30 mins by agarose gel electrophoresis method relative to control
Quantity Measured: inhibition (%)

C/C=C/C(=O)Nc1ccc(/C=C/c2cc(O)cc(O)c2)cc1
0.4

I. Oc1cc(O)cc(/C=C/c2ccc(O)c(-c3ccoc3)c2)c1
II. COc1ccc2cc(-c3ccc(NC(=O)CCc4ccccc4)cc3)cnc2c1
III. CNC(=O)/C=C/c1cc(/C=C/c2cc(O)cc(O)c2)ccc1O
IV. O=[N+]([O-])c1cccc(-c2cc(/C=C/c3cc(O)cc(O)c3)ccc2O)c1
V. COc1cc(/C=C/c2ccc(NC(=O)/C=C/c3ccccc3)cc2)cc(OC)c1
Order each entry by recorded inhibition, climbing from the minimum. Write out the labels following the order that was asked for.
II, V, III, I, IV

I. O=C(/C=C/c1ccccc1)Nc1cc(/C=C/c2cc(O)cc(O)c2)ccc1O
II. O=C(/C=C/c1ccc(O)c(/C=C/c2cc(O)cc(O)c2)c1)N1CCCCC1
Hi! Which is lower in terms of inhibition, the first one I or the second one II ? Use the label to indicate which entry you chose.
II
